The measurements presented in this section are drawn from patent US20250295815A1.

Test: Dyad photophysical properties in toluene, excited at 405 nm
Assay type: physicochemical
Settings: molar absorption coefficient x fluorescence quantum yield, at 405 nm, in M⁻¹cm⁻¹
MEASURED_QUANTITY: brightness (405 nm)

COC(=O)c1ccc(-c2c3nc(cc4ccc(cc5nc(cc6[nH]c2cc6C#Cc2ccc(CNC(=O)c6ccc(C7=C8C=CC(=N8)C=c8ccc9[n]8[Zn][n]8c(ccc87)C=C7C=CC(=N7)C=9)cc6)cc2)CC5(C)C)[nH]4)C=C3)cc1 | 22,648
COc1c2nc(cc3ccc([nH]3)c(-c3ccc(-c4c5nc(cc6ccc(cc7nc(cc8ccc4[nH]8)C=C7)[nH]6)C=C5)cc3)c3nc(cc4ccc1[nH]4)C(C)(C)C3)C(C)(C)C2 | 19,871
COC(=O)c1ccc(C2=c3ccc4[n]3[Zn][n]3c(ccc3C(c3ccc(C#Cc5ccc(C6=c7ccc8[n]7[Zn][n]7c(ccc7C=C7N=C(C=8)CC7(C)C)C=C7C=CC6=N7)cc5)cc3)=C3C=CC(=N3)C=4)C=C3C=CC2=N3)cc1 | 8,055
COC(=O)c1ccc(-c2c3nc(cc4ccc(cc5nc(cc6[nH]c2cc6C#Cc2ccc(-c6c7nc(cc8ccc([nH]8)c(-c8c(C)cc(C)cc8C)c8nc(cc9ccc6[nH]9)C=C8)C=C7)cc2)CC5(C)C)[nH]4)C=C3)cc1 | 47,083
